Data provenance: patent US11746113B2

measurement kind: melting point

Note to self: melting point recorded for CCCCCCC(C)(C)c1cc(OC(=O)C(C)(C)CCCCNC(=O)c2cc3cc4c5c(c3oc2=O)CCCN5CCC4)c2c(c1)OC(C)(C)C1CCC(=O)C[C@@H]21 (stereo in doubt) was 133 to 134 °C

---

In this section we review reported melting point values for a set of molecules.

Some molecules with recorded melting point:
INSERT INTO results (molecule, observed_result) VALUES
  ('CCCCCCC(C)(C)c1cc(OC(=O)C(C)(C)CCCNC(=O)c2cc3cc4c5c(c3oc2=O)CCCN5CCC4)c2c(c1)OC(C)(C)C1CCC(=O)C[C@@H]21 (stereo in doubt)', '130 to 131 °C'),
  ('CCCCCCC(C)(C)c1cc(OC(=O)C(C)(C)CCNC(=O)c2cc3cc4c5c(c3oc2=O)CCCN5CCC4)c2c(c1)OC(C)(C)[C@@H]1CCC(=O)C[C@@H]21', '132 to 133 °C'),
  ('CCCCCCC(C)(C)c1cc(OC(=O)c2cc3cc4c5c(c3oc2=O)CCCN5CCC4)c2c(c1)OC(C)(C)[C@@H]1CCC(=O)C[C@@H]21', '132 to 133 °C'),
  ('CCCCCCC(C)(C)c1cc(OC(=O)C(C)(C)CNC(=O)c2cc3cc4c5c(c3oc2=O)CCCN5CCC4)c2c(c1)OC(C)(C)[C@@H]1CCC(=O)C[C@@H]21', '131 to 132 °C');

Just so you know, measured melting point for "CCCCCCC(C)(C)c1cc(OC(=O)c2cc3ccc(OC)cc3oc2=O)c2c(c1)OC(C)(C)[C@@H]1CCC(=O)C[C@@H]21" came out at 122 to 123 °C
